- target.or.test.system: human α-synuclein pre-formed fibrils (Human Alpha Synuclein Pre-formed Fibrils Type II, StressMarq SPR-317) (human, UniProt P37840 1-140)
- test.method.notes: SPR Biacore T200, antibody captured on Protein A chip, α-syn PFF analyte, 1:1 model
- Method: The equipment used was Biacore® (GE Healthcare, Model T200). Protein A (GE Healthcare, Cat: 29-1275-56) was used as a chip, 10 mM glycine-HCl pH 1.5 (GE Healthcare, Cat: BR-1003-54) was used as a regeneration buffer, and HBS-EP was used as a running buffer and an analyte dilution and sample dilution buffer. […]
Each entry below carries its reported kon.
Respond with the bare value in M⁻¹ s⁻¹.

Completed entries (count: 2):
>  <binder>
chimeric 1E4 antibody (antibody, V domains shown, VH and VL of mouse 1E4 with human IgG1 and kappa constant regions; also called ch1E4; Ch1E4) VH: QVQLQQSGAELVRPGTSVKVSCKASGYAFTNYLIEWVKQRPGQGLEWIGVINPGSGGTNYNEKFKGKATLTADKSSSTAYMQLSSLTSDDSAVYFCASGNYDTYWGQGTLVTVSA VL: DVVMTQTPLSLPVSLGDQASISCRSSQSLVHSNGNTYLHWYLQKPGQSPKLLIYKVSNRFSGVPDRFSGSGSGTDFTLKISRVEAEDLGVYFCSQSTHVPRTFGGGTKLEIK

>  <readout.label>
kon

>  <unit.descriptor>
M⁻¹ s⁻¹

>  <value.measured>
1.04e+07

$$$$
>  <binder>
hu1E4(V9_VL4) (antibody, human IgG1, V domains shown, Monospecific; human IgG1 and kappa constant regions) VH: QVQLVQSGAEVKKPGASVKVSCKASGYTFTNYLIEWVRQAPGQGLEWIGVINPGSGGTNYNEKFKGRATLTADKSISTAYMELSRLRSDDTAVYYCASGNYDTYWGQGTLVTVSS VL: DVVMTQSPLSLPVTLGQPASISCRSSQSLVHSNGNTYLHWYQQRPGQSPRLLIYKVSNRFSGVPDRFSGSGSGTDFTLKISRVEAEDVGVYYCSQSTHVPRTFGGGTKVEIK

>  <readout.label>
kon

>  <unit.descriptor>
M⁻¹ s⁻¹

>  <value.measured>
1.42e+07

$$$$

Next binder, kon to be filled in.
Check the records and state kon for hu1E4(V1_VL1) (antibody, human IgG1, V domains shown, Monospecific; fused to human IgG1 and kappa constant regions; also called humanized 1E4(V1_VL1); hu1E4(Ver.1_VL1)) VH: QVQLVQSGAEVKKPGASVKVSCKASGYTFTNYLIEWVRQAPGQGLEWMGVINPGSGGTNYNEKFKGRVTMTRDTSISTAYMELSRLRSDDTAVYYCASGNYDTYWGQGTLVTVSS VL: DIVMTQTPLSLSVTPGQPASISCRSSQSLVHSNGNTYLHWYLQKPGQSPQLLIYKVSNRFSGVPDRFSGSGSGTDFTLKISRVEAEDVGVYYCSQSTHVPRTFGQGTKLEIK
1.59e+07
